Experiment: Volume of distribution at steady state in rat at 0.5 mg/kg, iv by LC-MS/MS analysis
Assay type: ADME, organism-based
Conditions: in vivo, read-out: Vdss
Label key: true means Vd under 1 L/kg; false means Vd of 1 L/kg or more.

Nc1cccnc1-c1cccc(C(=O)Nc2cccc(C(F)(F)F)c2-c2cccnc2)c1; false
O=C(Nc1cccc(C(F)(F)F)c1-c1cccnc1)c1cccc(-c2ncccc2C(F)(F)F)c1; true
O=C(Nc1cccc(C(F)(F)F)c1-c1cccnc1)c1cccc(-c2ccccn2)c1; false
O=C(Nc1cccc(C(F)(F)F)c1-c1cccnc1)c1cccc(-c2ncccc2OC(F)F)c1; false
O=C(Nc1cccc(C(F)(F)F)c1-c1cccnc1)c1cccc(-c2ncccc2Cl)c1; false

====

Test: Oral bioavailability in rat at 30 mg/kg administered via gavage by LC-MS/MS analysis
Format: ADME, organism-based
Settings: in vivo
measuredMetric: bioavailability (%)

O=C(Nc1cccc(C(F)(F)F)c1-c1cccnc1)c1cccc(-c2ncccc2OC(F)F)c1; 92

====

Test: Oral bioavailability in rat at 100 mg/kg administered via gavage by LC-MS/MS analysis
Assay type: ADME, organism-based
Conditions: in vivo
measuredMetric: bioavailability (%)

Nc1cccnc1-c1cccc(C(=O)Nc2cccc(C(F)(F)F)c2-c2cccnc2)c1; 73

====

Tested on: P-gp
Assay: Apparent permeability in MDCK cells harboring Pgp
Format: ADME, cell-based, Canis lupus familiaris
Settings: dog, MDCK-MDR1
Documented Papp across a set of compounds
measuredMetric: Papp (nm/s)

O=C(Nc1cccc(C(F)(F)F)c1-c1cccnc1)c1cccc(-c2ncccc2OC(F)F)c1; 310
O=C(COc1cccc2cccnc12)Nc1ccccc1N1CCOCC1; 370

====

Test system: Plasma
Assay: Drug uptake in plasma of Sprague-Dawley rat at 300 mg/kg, po
Assay type: ADME, organism-based
Details: in vivo
measuredMetric: concentration (µM)

Nc1cccnc1-c1cccc(C(=O)Nc2cccc(C(F)(F)F)c2-c2cccnc2)c1; 3.99

====

System: Plasma
Test: Drug uptake in plasma of Sprague-Dawley rat at 100 mg/kg, po
Assay type: ADME, organism-based
Details: in vivo
measuredMetric: concentration (nM)

Nc1cccnc1-c1cccc(C(=O)Nc2cccc(C(F)(F)F)c2-c2cccnc2)c1; 1800

====

Tested on: Plasma
Experiment: Drug uptake in plasma of formalin-induced nociception Sprague-Dawley rat model at 30 mg/kg, po
Assay type: ADME, organism-based
Conditions: in vivo
measuredMetric: concentration

Nc1cccnc1-c1cccc(C(=O)Nc2cccc(C(F)(F)F)c2-c2cccnc2)c1; 342 nM

====

Assay: Aqueous solubility of compound in PBS buffer
Type: physicochemical
log10 solubility: recorded values
measuredMetric: log10 solubility (log10 of the value in µM)

O=C(Nc1cccc(C(F)(F)F)c1-c1cccnc1)c1cccc(-c2ncccc2C(F)(F)F)c1; 1.34
O=C(Nc1cccc(C(F)(F)F)c1-c1cccnc1)c1cccc(-c2ccccn2)c1; 1.08
O=C(Nc1cccc(C(F)(F)F)c1-c1cccnc1)c1cccc(-c2ncccc2OC(F)F)c1; 1.75
O=C(Nc1cccc(C(F)(F)F)c1-c1cccnc1)c1cccc(-c2ncccc2Cl)c1; 1.00
Nc1cccnc1-c1cccc(C(=O)Nc2cccc(C(F)(F)F)c2-c2cccnc2)c1; 2.67

====

Assay: Oral bioavailability in rat at 40 mg/kg administered via gavage by LC-MS/MS analysis
Assay type: ADME, organism-based
Settings: in vivo
measuredMetric: bioavailability (%)

O=C(Nc1cccc(C(F)(F)F)c1-c1cccnc1)c1cccc(-c2ncccc2C(F)(F)F)c1; 26

====

bioavailability values, listed per item
Test: Oral bioavailability in rat at 10 mg/kg administered via gavage by LC-MS/MS analysis
Assay type: ADME, organism-based
Details: in vivo
measuredMetric: bioavailability

O=C(Nc1cccc(C(F)(F)F)c1-c1cccnc1)c1cccc(-c2ncccc2Cl)c1; 58%
O=C(Nc1cccc(C(F)(F)F)c1-c1cccnc1)c1cccc(-c2ccccn2)c1; 54%

Hello, the source for this data is ChEMBL document CHEMBL4052739, in case you need it.
